Tested on: M19-MEL
EXPERIMENTAL PROTOCOL: NCI tumour cell line growth inhibition, 48 h
Active and inactive are the calls of the source. Cut-off read from the data, not from the text of the source: active = GI50 up to about 1.1 µM and inactive = higher.
Possible outcomes: true (1) for active, false (0) for inactive

COMPOUND: Cn1nc(-c2ccccc2)c(C(=O)/C=C/c2ccccc2)c(N2CCCC2)c1=O
SYSTEM UNDER TEST: M19-MEL
LABEL CLASS: false (0)
//
COMPOUND: CO/C(=N\N=Cc1ccccc1)c1ccncc1
SYSTEM UNDER TEST: M19-MEL
LABEL CLASS: false (0)
//
COMPOUND: COC(=O)C1c2cc3c(c(O)c2C(O)CC1(C)O)C(=O)c1c(O)cc2c(c1C3=O)OC1OC2(C)C(O)C(N(C)C)C1O (stereo not given)
SYSTEM UNDER TEST: M19-MEL
LABEL CLASS: false (0)
//
COMPOUND: CC(C)[C@H]1CO[C@@H]2O[C@H](C)CC(=O)N21
SYSTEM UNDER TEST: M19-MEL
LABEL CLASS: false (0)
//
COMPOUND: O=C(c1ccco1)N(C(=S)N1CCN(c2ccccc2)CC1)c1ccccc1
SYSTEM UNDER TEST: M19-MEL
LABEL CLASS: false (0)
//
COMPOUND: CCOC(=O)C(=O)Nc1ccc([N+](=O)[O-])cc1C#N
SYSTEM UNDER TEST: M19-MEL
LABEL CLASS: false (0)
//
COMPOUND: Cc1ccc(/C=C(\NC(=O)c2ccccc2)c2nc3ccccc3[nH]2)cc1
SYSTEM UNDER TEST: M19-MEL
LABEL CLASS: false (0)
//
COMPOUND: COc1c(CC(C)O)c2c3c(CC(C)O)c(OC)c(=O)c4c(O)cc5c(c6c(cc(O)c(c1=O)c62)OCO5)c43 (stereo not given) [CERCOSPORIN]
SYSTEM UNDER TEST: M19-MEL
LABEL CLASS: true (1)
//
COMPOUND: CCC(CC)n1c(C)nc2c1C(=O)c1ccccc1C2=O
SYSTEM UNDER TEST: M19-MEL
LABEL CLASS: false (0)
//
COMPOUND: COc1ccc2c(c1)OC[C@@H]1c3cc(O)c(OCc4ccccc4)cc3O[C@H]21
SYSTEM UNDER TEST: M19-MEL
LABEL CLASS: false (0)

Source of measurements: ChEMBL document CHEMBL1201862
